target: Coagulation factor X (Oryctolagus cuniculus)
Sequence (O19045 41-180 limits assumed): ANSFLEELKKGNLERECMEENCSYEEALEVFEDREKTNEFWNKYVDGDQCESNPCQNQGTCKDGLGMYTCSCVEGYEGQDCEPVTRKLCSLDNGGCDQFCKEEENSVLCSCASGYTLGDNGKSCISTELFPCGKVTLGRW
Sequence (O19045 233-490 limits assumed): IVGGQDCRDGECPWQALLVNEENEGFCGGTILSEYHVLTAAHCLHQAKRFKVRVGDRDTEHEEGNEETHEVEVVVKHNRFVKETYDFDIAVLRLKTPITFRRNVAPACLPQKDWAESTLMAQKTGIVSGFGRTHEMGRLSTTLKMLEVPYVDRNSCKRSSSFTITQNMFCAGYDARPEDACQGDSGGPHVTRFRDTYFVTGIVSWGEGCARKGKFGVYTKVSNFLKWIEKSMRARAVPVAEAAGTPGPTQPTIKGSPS
Readout Name: Ki

Form field Ki for item `NC[C@H]1CC[C@H](C(=O)N[C@@H](Cc2ccccc2)c2nc(-c3ccc4c(N)n[nH]c4c3)c(Cl)[nH]2)CC1.O=C(O)C(F)(F)F` on Coagulation factor X (Oryctolagus cuniculus): > 10 µM

====

Below, each entry is listed with its recorded pKi.
molecular target: Coagulation factor XI (Homo sapiens, UniProt P03951); assay: Inhibition of human coagulation factor 11a using p-nitroaniline as substrate assessed as substrate hydrolysis by spectrophotometrically
Sequence (P03951 19-387 limits assumed): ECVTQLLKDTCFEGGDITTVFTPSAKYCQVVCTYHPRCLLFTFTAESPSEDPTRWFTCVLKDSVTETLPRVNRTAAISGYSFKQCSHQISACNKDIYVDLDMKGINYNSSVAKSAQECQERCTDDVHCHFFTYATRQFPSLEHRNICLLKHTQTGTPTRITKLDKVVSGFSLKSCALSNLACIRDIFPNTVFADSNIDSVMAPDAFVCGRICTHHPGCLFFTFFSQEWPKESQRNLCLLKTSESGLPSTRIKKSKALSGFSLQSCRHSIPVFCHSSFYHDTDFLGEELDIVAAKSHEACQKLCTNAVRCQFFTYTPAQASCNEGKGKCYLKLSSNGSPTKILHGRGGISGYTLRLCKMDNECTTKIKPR
Sequence (P03951 388-625 limits assumed): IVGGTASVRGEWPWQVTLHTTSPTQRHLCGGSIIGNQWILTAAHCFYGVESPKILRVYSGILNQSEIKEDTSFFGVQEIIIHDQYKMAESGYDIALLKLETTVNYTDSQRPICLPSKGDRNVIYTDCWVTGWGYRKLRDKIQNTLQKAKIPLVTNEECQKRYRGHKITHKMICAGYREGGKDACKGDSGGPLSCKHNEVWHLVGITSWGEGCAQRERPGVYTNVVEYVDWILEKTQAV
The quantity pKi is defined as the negative base-10 logarithm of the molar concentration.

>>> endpoint_result("NC[C@H]1CC[C@H](C(=O)N[C@@H](Cc2ccccc2)c2nc(-c3ccc4c(N)n[nH]c4c3)c(Cl)[nH]2)CC1.O=C(O)C(F)(F)F")
9.52
>>> endpoint_result("CCOC(=O)Cc1cccc(-c2c[nH]c([C@H](Cc3ccccc3)NC(=O)[C@H]3CC[C@H](CN)CC3)n2)c1")
6.20
>>> endpoint_result("CN(C)C(=O)c1ccc(-c2c[nH]c([C@H](Cc3ccccc3)NC(=O)[C@H]3CC[C@H](CN)CC3)n2)cc1")
5.54

Entry under test: `COC(=O)c1ccc(-c2c[nH]c([C@H](Cc3ccccc3)NC(=O)[C@H]3CC[C@H](CN)CC3)n2)cc1` . Its pKi was 6.10

Entry under test: `NC[C@H]1CC[C@H](C(=O)N[C@@H](Cc2ccccc2)c2nc(-c3ccccc3)n[nH]2)CC1` . Its pKi was 6.01

Entry under test: `NC[C@H]1CC[C@H](C(=O)N[C@@H](Cc2ccccc2)c2nc(-c3ccc(C(N)=O)cc3)c(Cl)[nH]2)CC1.O=C(O)C(F)(F)F` . Its pKi was 8.40

====

assay: Inhibition of rabbit coagulation thrombin using pyro-Glu-Pro-Argp-NA as substrate by spectrophotometric analysis; parameters: species or system Oryctolagus cuniculus
pKi: −log10 of the molar value.
Readout Name: pKi

Entry under test: `NC[C@H]1CC[C@H](C(=O)N[C@@H](Cc2ccccc2)c2nc(-c3ccc4c(N)n[nH]c4c3)c(Cl)[nH]2)CC1.O=C(O)C(F)(F)F` . Its pKi was < 4.70

====

Below, each entry is listed with its recorded log10 of Ki.
molecular target: Plasma kallikrein (Homo sapiens, UniProt P03952); assay: Inhibition of human plasma kallikrein using H-D-Pro-Phe-Arg-pNA as substrate
Sequence (P03952 20-390 limits assumed): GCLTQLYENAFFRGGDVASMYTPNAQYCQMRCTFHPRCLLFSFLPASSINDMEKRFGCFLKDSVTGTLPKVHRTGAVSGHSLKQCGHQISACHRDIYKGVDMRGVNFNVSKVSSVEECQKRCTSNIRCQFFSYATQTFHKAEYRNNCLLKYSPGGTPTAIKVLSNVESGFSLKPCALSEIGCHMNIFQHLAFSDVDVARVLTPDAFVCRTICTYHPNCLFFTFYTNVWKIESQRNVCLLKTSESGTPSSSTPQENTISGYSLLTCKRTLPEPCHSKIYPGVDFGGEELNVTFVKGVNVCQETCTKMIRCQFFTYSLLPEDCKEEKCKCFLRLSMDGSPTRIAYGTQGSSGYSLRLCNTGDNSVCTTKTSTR
Sequence (P03952 391-638 limits assumed): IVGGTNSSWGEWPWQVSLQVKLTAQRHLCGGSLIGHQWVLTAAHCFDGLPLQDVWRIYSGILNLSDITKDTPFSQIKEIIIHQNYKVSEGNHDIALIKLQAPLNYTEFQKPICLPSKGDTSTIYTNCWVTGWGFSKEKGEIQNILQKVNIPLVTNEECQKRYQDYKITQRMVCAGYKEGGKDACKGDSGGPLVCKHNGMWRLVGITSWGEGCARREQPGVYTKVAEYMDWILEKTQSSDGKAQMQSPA
Note: values are log10 of Ki expressed in nM.

// known answers, use as guide
>>> endpoint_result("N#Cc1ccc(-c2c[nH]c([C@H](Cc3ccccc3)NC(=O)[C@H]3CC[C@H](CN)CC3)n2)cc1")
2.97
>>> endpoint_result("NC[C@H]1CC[C@H](C(=O)N[C@@H](Cc2ccccc2)c2nc(-c3ccc4c(N)n[nH]c4c3)c(Cl)[nH]2)CC1.O=C(O)C(F)(F)F")
0.70
>>> endpoint_result("NC[C@H]1CC[C@H](C(=O)N[C@@H](Cc2ccccc2)c2nc(-c3ccc(C(=O)O)cc3)c[nH]2)CC1 (mixture of isomers)")
3.58

Form field log10 of Ki for item `CC(C)CC(=O)Nc1cc(-c2ccc(C(N)=O)cc2C(=O)O)cc([C@@H]2C[C@](C)(c3ccccc3)c3cc(C(=N)N)ccc3N2)c1` on Plasma kallikrein (Homo sapiens, UniProt P03952): 0.30

Form field log10 of Ki for item `NC[C@H]1CC[C@H](C(=O)N[C@@H](Cc2ccccc2)c2nc(-c3ccc4c(N)n[nH]c4c3)c(F)[nH]2)CC1.O=C(O)C(F)(F)F` on Plasma kallikrein (Homo sapiens, UniProt P03952): 0.30

Form field log10 of Ki for item `NC[C@H]1CC[C@H](C(=O)N[C@@H](Cc2ccccc2)c2nc(-c3ccc(C(N)=O)cc3)c(F)[nH]2)CC1.O=C(O)C(F)(F)F` on Plasma kallikrein (Homo sapiens, UniProt P03952): 0.90

====

assay: Volume of distribution at steady state in rabbit plasma at 0.5 mg/kg, iv; assay type: ADME, organism-based, Oryctolagus cuniculus; set-up: dose 0.5 mg/kg, route intravenous; settings: read-out: Vdss
Readout Name: Vd (L/kg)
Answer in L/kg, number only, no unit symbol.

Entry under test: `NC[C@H]1CC[C@H](C(=O)N[C@@H](Cc2ccccc2)c2nc(-c3ccc4c(N)n[nH]c4c3)c(Cl)[nH]2)CC1.O=C(O)C(F)(F)F` . Its Vd was 0.7

====

test: Mean residence time in rabbit plasma at 0.5 mg/kg, iv; assay type: ADME, organism-based, Oryctolagus cuniculus; design: dose 0.5 mg/kg, route intravenous
Readout Name: MRT

Entry under test: `NC[C@H]1CC[C@H](C(=O)N[C@@H](Cc2ccccc2)c2nc(-c3ccc4c(N)n[nH]c4c3)c(Cl)[nH]2)CC1.O=C(O)C(F)(F)F` . Its MRT was 36 min

====

assay: Cmax in rabbit plasma at 0.5 mg/kg, iv; type: ADME, organism-based, Oryctolagus cuniculus; set-up: dose 0.5 mg/kg, route intravenous
Readout Name: Cmax (nM)
Answer in nM, number only, no unit symbol.

Entry under test: `NC[C@H]1CC[C@H](C(=O)N[C@@H](Cc2ccccc2)c2nc(-c3ccc4c(N)n[nH]c4c3)c(Cl)[nH]2)CC1.O=C(O)C(F)(F)F` . Its Cmax was 2470

====

target: Plasma kallikrein (Homo sapiens); test: Inhibition of human plasma kallikrein using H-D-Pro-Phe-Arg-pNA as substrate
Each entry falls in a class defined on Ki; the bands are lower level (below 0.8 µM), middle level (0.8 µM to below 3 µM), upper level (3 µM or more)

Example results:
>>> group_label("NC[C@H]1CC[C@H](C(=O)N[C@@H](Cc2ccccc2)c2cc(-c3ccccc3)n[nH]2)CC1")
"upper level"
>>> group_label("NC[C@H]1CC[C@H](C(=O)N[C@@H](Cc2ccccc2)c2nc(-c3ccc4c(N)n[nH]c4c3)c[nH]2)CC1.O=C(O)C(F)(F)F")
"lower level"
>>> group_label("CN(C)C(=O)c1ccc(-c2c[nH]c([C@H](Cc3ccccc3)NC(=O)[C@H]3CC[C@H](CN)CC3)n2)cc1")
"upper level"
>>> group_label("CCOC(=O)Cc1ccc(-c2c[nH]c([C@H](Cc3ccccc3)NC(=O)[C@H]3CC[C@H](CN)CC3)n2)cc1")
"middle level"
>>> group_label("NC[C@H]1CC[C@H](C(=O)N[C@@H](Cc2ccccc2)c2nc(-c3ccc(C(N)=O)cc3)c(Br)[nH]2)CC1.O=C(O)C(F)(F)F")
"lower level"
>>> group_label("NC[C@H]1CC[C@H](C(=O)N[C@@H](Cc2ccccc2)c2nc(-c3ccc(CC(=O)O)cc3)c[nH]2)CC1")
"lower level"
>>> group_label("CCOC(=O)Cc1cccc(-c2c[nH]c([C@H](Cc3ccccc3)NC(=O)[C@H]3CC[C@H](CN)CC3)n2)c1")
"middle level"
>>> group_label("NC[C@H]1CC[C@H](C(=O)N[C@@H](Cc2ccccc2)c2nc(-c3ccc(CC(N)=O)cc3)c[nH]2)CC1 (mixture of isomers)")
"middle level"

Which category does the recorded Ki put `N#Cc1cccc(-c2c[nH]c([C@H](Cc3ccccc3)NC(=O)[C@H]3CC[C@H](CN)CC3)n2)c1` in?
middle level

Which category does the recorded Ki put `NC[C@H]1CC[C@H](C(=O)N[C@@H](Cc2ccccc2)c2ncc(-c3ccccc3)o2)CC1` in?
upper level

Which category does the recorded Ki put `NC[C@H]1CC[C@H](C(=O)N[C@@H](Cc2ccccc2)c2nc(-c3ccc(C(N)=O)cc3)c[nH]2)CC1.O=C(O)C(F)(F)F` in?
lower level

====

target: Plasma kallikrein (Homo sapiens, UniProt P03952); test: Inhibition of human plasma kallikrein using H-D-Pro-Phe-Arg-pNA as substrate
Below, each entry is listed with its recorded pKi.
The quantity pKi is defined as the negative base-10 logarithm of the molar concentration.

Entry under test: `COC(=O)c1ccc(-c2c[nH]c([C@H](Cc3ccccc3)NC(=O)[C@H]3CC[C@H](CN)CC3)n2)cc1` . Its pKi was 5.72

====

Sequence of the target: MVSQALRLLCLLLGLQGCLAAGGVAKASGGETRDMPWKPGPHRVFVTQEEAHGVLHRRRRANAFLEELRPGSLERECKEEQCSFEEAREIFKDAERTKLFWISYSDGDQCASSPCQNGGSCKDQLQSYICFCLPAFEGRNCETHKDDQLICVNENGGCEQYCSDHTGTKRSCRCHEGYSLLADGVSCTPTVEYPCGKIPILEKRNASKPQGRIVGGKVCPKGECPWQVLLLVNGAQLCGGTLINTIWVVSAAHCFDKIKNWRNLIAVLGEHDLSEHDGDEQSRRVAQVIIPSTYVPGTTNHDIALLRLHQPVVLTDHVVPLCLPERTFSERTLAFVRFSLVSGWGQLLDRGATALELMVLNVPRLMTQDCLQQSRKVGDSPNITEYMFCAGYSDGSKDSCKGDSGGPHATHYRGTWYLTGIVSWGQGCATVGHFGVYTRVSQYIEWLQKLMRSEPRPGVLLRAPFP
pKi: −log10 of the molar value.
Below, each entry is listed with its recorded pKi.

>>> endpoint_result("COC(=O)c1ccc(-c2c[nH]c([C@H](Cc3ccccc3)NC(=O)[C@H]3CC[C@H](CN)CC3)n2)cc1")
"< 4.96"
>>> endpoint_result("NC[C@H]1CC[C@H](C(=O)N[C@@H](Cc2ccccc2)c2nc(-c3ccc(C(N)=O)cc3)c[nH]2)CC1.O=C(O)C(F)(F)F")
"< 4.96"
>>> endpoint_result("NC[C@H]1CC[C@H](C(=O)N[C@@H](Cc2ccccc2)c2nc(-c3ccc(CC(N)=O)cc3)c[nH]2)CC1 (mixture of isomers)")
"< 4.96"
>>> endpoint_result("NC[C@H]1CC[C@H](C(=O)N[C@@H](Cc2ccccc2)c2nc(-c3ccc(CC(=O)O)cc3)c[nH]2)CC1")
"< 4.96"
>>> endpoint_result("N#Cc1ccc(-c2c[nH]c([C@H](Cc3ccccc3)NC(=O)[C@H]3CC[C@H](CN)CC3)n2)cc1")
"< 4.96"
>>> endpoint_result("NC[C@H]1CC[C@H](C(=O)N[C@@H](Cc2ccccc2)c2nc(-c3ccc4c(N)n[nH]c4c3)c(Cl)[nH]2)CC1.O=C(O)C(F)(F)F")
5.37

Entry under test: `NC[C@H]1CC[C@H](C(=O)N[C@@H](Cc2ccccc2)c2nc(-c3ccc(S(N)(=O)=O)cc3)c[nH]2)CC1` . Its pKi was < 4.96

Entry under test: `CCOC(=O)Cc1cccc(-c2c[nH]c([C@H](Cc3ccccc3)NC(=O)[C@H]3CC[C@H](CN)CC3)n2)c1` . Its pKi was < 4.96

Entry under test: `CC(C)CC(=O)Nc1cc(-c2ccc(C(N)=O)cc2C(=O)O)cc([C@@H]2C[C@](C)(c3ccccc3)c3cc(C(=N)N)ccc3N2)c1` . Its pKi was 6.20
